These entries and their values trace back to ChEMBL document CHEMBL5537174.

Entries and their measured IC50 follow.
# System: NCI-H358
# method_description: Antiproliferative activity against human NCI-H358 cells harboring G12C mutant assessed as inhibition of cell proliferation incubated for 7 days by celltiter-glo 3D assay
# Type: functional, cell-based
# assay_conditions: NCI-H358, 168 h

molecule: COc1cc2nc(C)nc(N[C@H](C)c3cc(N)cc(C(F)(F)F)c3)c2cc1OCC1(CN(C)C(=O)CCCCCCNc2cccc3c2C(=O)N(C2CCC(=O)NC2=O)C3=O)CC1 (some centres not stated)
IC50, nM: 5
//
molecule: COc1cc2nc(C)nc(N[C@H](C)c3cc(N)cc(C(F)(F)F)c3)c2cc1O[C@H]1CCOC1
IC50, nM: 26
